# Assayed System: Serotonin 2 (5-HT2) receptor (Rattus norvegicus, UniProt P30994+P08909+P14842)
For each entry below, report its Log Ki value.
Numbers only.

# example entries with known answers
C[C@H](N)Cc1c[nH]c2cccc(O)c12	-5.21
COc1cccc2[nH]cc(C[C@@H](C)N)c12	-5.84
COc1cccc2[nH]cc(C[C@H](C)N)c12	-6.02

// switching to the query compound
Request: Consider the compound shown here: C[C@@H](N)Cc1c[nH]c2cccc(O)c12 What is its recorded Log Ki?
Response: -5.46
